Listed here: items and their measured cell survival.
System: 409B2 hiPSC (iCRISPR Cas9, FRMD7 editing)
Assay: cell survival relative to solvent control (fold (ratio to mock)); higher = more surviving cells
Conditions: 20 nM
Structures can show the parent of a compound that is named as a salt.
measured.property: cell survival

compound="Nc1ccn([C@@H]2O[C@H](CO)[C@@H](O)[C@@H]2O)c(=O)n1 [Cytarabine hydrochloride] (in DMSO)" subject_of_test="409B2 hiPSC (iCRISPR Cas9, FRMD7 editing)" measured_property="cell survival" measured_result=1.01
compound="CC(=O)O[C@]1(C(C)=O)CC[C@H]2[C@@H]3C=C(Cl)C4=CC(=O)[C@@H]5C[C@@H]5[C@]4(C)[C@H]3CC[C@@]21C [Cyproterone Acetate] (in DMSO)" subject_of_test="409B2 hiPSC (iCRISPR Cas9, FRMD7 editing)" measured_property="cell survival" measured_result=0.984
compound="CNCc1ccc(-c2[nH]c3cc(F)cc4c3c2CCNC4=O)cc1 [Rucaparib (free base)] (in DMSO)" subject_of_test="409B2 hiPSC (iCRISPR Cas9, FRMD7 editing)" measured_property="cell survival" measured_result=0.789
compound="CC[C@@]1(O)C(=O)OCc2c1cc1n(c2=O)Cc2cc3cc(O)ccc3nc2-1 [10-Hydroxycamptothecin] (in DMSO)" subject_of_test="409B2 hiPSC (iCRISPR Cas9, FRMD7 editing)" measured_property="cell survival" measured_result=0.0133
compound="C[C@@H]1O[C@@H](O[C@@H]2[C@@H](O)[C@H](OCCc3ccc(O)c(O)c3)O[C@H](CO)[C@H]2OC(=O)/C=C/c2ccc(O)c(O)c2)[C@H](O)[C@H](O)[C@H]1O [Verbascoside] (in DMSO)" subject_of_test="409B2 hiPSC (iCRISPR Cas9, FRMD7 editing)" measured_property="cell survival" measured_result=0.884
compound="NC(=O)CC[C@@H](N)C(=O)O [D-Glutamine] (in H2O)" subject_of_test="409B2 hiPSC (iCRISPR Cas9, FRMD7 editing)" measured_property="cell survival" measured_result=0.958
compound="CC[C@@]1(O)C(=O)OCc2c1cc1n(c2=O)Cc2cc3c(CN(C)C)c(O)ccc3nc2-1 [Topotecan] (in DMSO)" subject_of_test="409B2 hiPSC (iCRISPR Cas9, FRMD7 editing)" measured_property="cell survival" measured_result=0.0825
compound="NCCS [2-Aminoethanethiol] (in DMSO)" subject_of_test="409B2 hiPSC (iCRISPR Cas9, FRMD7 editing)" measured_property="cell survival" measured_result=0.948
compound="C=CC[C@]1(O)CC[C@H]2[C@@H]3CCC4=CC(=O)CCC4=C3C=C[C@@]21C [Altrenogest] (in DMSO)" subject_of_test="409B2 hiPSC (iCRISPR Cas9, FRMD7 editing)" measured_property="cell survival" measured_result=1.01
compound="CSCCC(N)C(=O)O (racemic) [DL-Methionine] (in H2O)" subject_of_test="409B2 hiPSC (iCRISPR Cas9, FRMD7 editing)" measured_property="cell survival" measured_result=0.974
compound="NS(=O)(=O)c1ccccc1 [Benzenesulfonamide] (in DMSO)" subject_of_test="409B2 hiPSC (iCRISPR Cas9, FRMD7 editing)" measured_property="cell survival" measured_result=0.86
compound="C1CCN2C[C@@H]3C[C@@H](CN4CCCC[C@@H]34)[C@H]2C1 [Sparteine] (in DMSO)" subject_of_test="409B2 hiPSC (iCRISPR Cas9, FRMD7 editing)" measured_property="cell survival" measured_result=0.978
compound="CO[C@@H]1[C@H](OC(=O)/C=C/C=C/C=C/C=C/C(=O)O)CC[C@]2(CO2)[C@H]1[C@@]1(C)O[C@@H]1CC=C(C)C [Fumagillin] (in DMSO)" subject_of_test="409B2 hiPSC (iCRISPR Cas9, FRMD7 editing)" measured_property="cell survival" measured_result=0.264
compound="C[C@]12CC[C@@H]3c4ccc(O)cc4CC[C@H]3[C@@H]1C[C@@H](O)[C@@H]2O [Estriol] (in DMSO)" subject_of_test="409B2 hiPSC (iCRISPR Cas9, FRMD7 editing)" measured_property="cell survival" measured_result=0.994
compound="CCCCCCCCCCCCCC(=O)O [Myristic Acid] (in DMSO)" subject_of_test="409B2 hiPSC (iCRISPR Cas9, FRMD7 editing)" measured_property="cell survival" measured_result=1.01

----------
Test system: 409B2 hiPSC (iCRISPR Cas9, FRMD7 editing)
Assay: cell survival relative to solvent control (fold (ratio to mock)); higher = more surviving cells
Conditions: 500 nM
Where a name gives a salt, the structure may show the parent alone.
Assign YES to entries whose cell survival meets or exceeds 0.9; assign NO to the rest.

compound="Cc1nc(=O)c2cc(CN(C)c3ccc(C(=O)N[C@@H](CCC(=O)O)C(=O)O)s3)ccc2[nH]1 [Raltitrexed] (in DMSO)" group_label=YES
compound="O=C(c1cc(Cc2n[nH]c(=O)c3ccccc23)ccc1F)N1CCN(C(=O)C2CC2)CC1 (in DMSO)" group_label=NO
compound="CC[C@@]1(O)C(=O)OCc2c1cc1n(c2=O)Cc2cc3cc(O)ccc3nc2-1 [10-Hydroxycamptothecin] (in DMSO)" group_label=NO
compound="CO[C@@H]1[C@H](OC(=O)/C=C/C=C/C=C/C=C/C(=O)O)CC[C@]2(CO2)[C@H]1[C@@]1(C)O[C@@H]1CC=C(C)C [Fumagillin] (in DMSO)" group_label=NO
compound="CCCCc1oc2ccc(NS(C)(=O)=O)cc2c1C(=O)c1ccc(OCCCN(CCCC)CCCC)cc1 [Dronedarone HCl] (in DMSO)" group_label=YES

----------
Tested on: 409B2 hiPSC (iCRISPR Cas9, FRMD7 editing)
Assay: HDR (precise edit) frequency relative to solvent control (fold (ratio to mock)); higher = more homology-directed repair outcomes
Details: 20000 nM
Where a name gives a salt, the structure may show the parent alone.
Each entry below carries its recorded HDR.
measured.property: HDR

compound="CCN1CCN(Cc2ccc(Nc3ncc(F)c(-c4cc(F)c5nc(C)n(C(C)C)c5c4)n3)nc2)CC1 (in EtOH)" measured_result=0.0719
compound="C[C@]12CC[C@@H]3c4ccc(O)cc4CC[C@H]3[C@@H]1C[C@@H](O)[C@@H]2O [Estriol] (in DMSO)" measured_result=1.11
compound="CN(C)C(=O)Oc1cccc([N+](C)(C)C)c1 [Hodostin] (in DMSO)" measured_result=1.15
compound="CCN1CCC[C@H]1CNC(=O)c1cc(S(N)(=O)=O)ccc1OC [Levosulpiride] (in DMSO)" measured_result=1.06
compound="Nc1ccn(C[C@@H](CO)OCP(=O)(O)O)c(=O)n1 [Cidofovir] (in H2O)" measured_result=0.574
compound="CN(C)C(=O)C(CCN1CCC(O)(c2ccc(Cl)cc2)CC1)(c1ccccc1)c1ccccc1 [Loperamide HCl] (in DMSO)" measured_result=0.136
compound="C[C@@H]1O[C@@H](O[C@H]2C[C@@H](O)[C@]3(CO)[C@H]4[C@H](O)C[C@]5(C)[C@@H](C6=CC(=O)OC6)CC[C@]5(O)[C@@H]4CC[C@]3(O)C2)[C@H](O)[C@H](O)[C@H]1O [Ouabain Octahydrate] (in H2O)" measured_result=0.068

----------
List of cell survival values.
Test system: 409B2 hiPSC (iCRISPR Cas9, FRMD7 editing)
Test: cell survival relative to solvent control (fold (ratio to mock)); higher = more surviving cells
Details: 20 nM
Where a name gives a salt, the structure may show the parent alone.
measured.property: cell survival

compound="OC[C@H]1O[C@@H](c2ccc(F)c(Cc3cc4ccccc4s3)c2)[C@H](O)[C@@H](O)[C@@H]1O [Ipragliflozin] (in DMSO)" subject_of_test="409B2 hiPSC (iCRISPR Cas9, FRMD7 editing)" measured_result=0.951
compound="CC[C@]1(O)C[C@@H]2CN(CCc3c([nH]c4ccccc34)[C@@](C(=O)OC)(c3cc4c(cc3OC)N(C)[C@H]3[C@@](O)(C(=O)OC)[C@H](OC(C)=O)[C@]5(CC)C=CCN6CC[C@]43[C@@H]65)C2)C1 [vinblastine] (in DMSO)" subject_of_test="409B2 hiPSC (iCRISPR Cas9, FRMD7 editing)" measured_result=0.00549
compound="CC(=O)O[C@]1(C(C)=O)CC[C@H]2[C@@H]3C=C(C)C4=CC(=O)CC[C@]4(C)[C@H]3CC[C@@]21C [Megestrol Acetate] (in EtOH)" subject_of_test="409B2 hiPSC (iCRISPR Cas9, FRMD7 editing)" measured_result=1.6
compound="Nc1ncnc2c1ncn2C1CC(O)C(CO)O1 (stereo not drawn) [2'-Deoxyadenosine monohydrate] (in DMSO)" subject_of_test="409B2 hiPSC (iCRISPR Cas9, FRMD7 editing)" measured_result=0.996
compound="CS(=O)(=O)N1CCN(Cc2cc3nc(-c4cccc5[nH]ncc45)nc(N4CCOCC4)c3s2)CC1 [GDC-0941] (in DMSO)" subject_of_test="409B2 hiPSC (iCRISPR Cas9, FRMD7 editing)" measured_result=0.924
compound="CC[C@H](CO)Nc1nc(NCc2ccccc2)c2ncn(C(C)C)c2n1 [Roscovitine (Seliciclib,CYC202)] (in DMSO)" subject_of_test="409B2 hiPSC (iCRISPR Cas9, FRMD7 editing)" measured_result=1.04
compound="CC[C@]1(O)C[C@@H]2CN(CCc3c([nH]c4ccccc34)[C@@](C(=O)OC)(c3cc4c(cc3OC)N(C)[C@H]3[C@@](O)(C(=O)OC)[C@H](OC(C)=O)[C@]5(CC)C=CCN6CC[C@]43[C@@H]65)C2)C1 [Vinblastine sulfate] (in DMSO)" subject_of_test="409B2 hiPSC (iCRISPR Cas9, FRMD7 editing)" measured_result=0.00294
compound="CC(C)(c1ccc(O)cc1)c1ccc(O)cc1 [Bisphenol A] (in DMSO)" subject_of_test="409B2 hiPSC (iCRISPR Cas9, FRMD7 editing)" measured_result=1.02
